- experiment notes: Volume of distribution at steady state in Wistar rat at 0.30 mg/kg, iv via bolus or 0.30 mg/kg, po measured upto 24 hrs by LC-MS/MS analysis
- Type: ADME, organism-based
- test settings: in vivo, 0.3 mg/kg, read-out: Vdss
endpoint name: Vd (L/kg)
Number only, in L/kg; omit the unit.

Determine its reported Vd: C[C@H](c1ccnc(Nc2nc3ccc(-c4cc(N(C)C)ncn4)cc3[nH]2)c1)N1CCN(C(=O)CC(F)(F)F)CC1 [BAY-985]
2.9

----------
- experiment notes: Hepatic extraction in Wistar rat at 0.30 mg/kg, iv via bolus or 0.30 mg/kg, po measured upto 24 hrs by LC-MS/MS analysis
- test settings: in vivo, 0.3 mg/kg
endpoint name: hepatic extraction ratio at 24 h

Determine its reported hepatic extraction ratio at 24 h: C[C@H](c1ccnc(Nc2nc3ccc(-c4cc(N(C)C)ncn4)cc3[nH]2)c1)N1CCN(C(=O)CC(F)(F)F)CC1
0.95

----------
Consider the following compounds and their measured IC50 readings.
- target under test: IKK epsilon/TBK1 (Homo sapiens, UniProt Q14164+Q9UHD2)
- Sequence (Q14164 whole entry): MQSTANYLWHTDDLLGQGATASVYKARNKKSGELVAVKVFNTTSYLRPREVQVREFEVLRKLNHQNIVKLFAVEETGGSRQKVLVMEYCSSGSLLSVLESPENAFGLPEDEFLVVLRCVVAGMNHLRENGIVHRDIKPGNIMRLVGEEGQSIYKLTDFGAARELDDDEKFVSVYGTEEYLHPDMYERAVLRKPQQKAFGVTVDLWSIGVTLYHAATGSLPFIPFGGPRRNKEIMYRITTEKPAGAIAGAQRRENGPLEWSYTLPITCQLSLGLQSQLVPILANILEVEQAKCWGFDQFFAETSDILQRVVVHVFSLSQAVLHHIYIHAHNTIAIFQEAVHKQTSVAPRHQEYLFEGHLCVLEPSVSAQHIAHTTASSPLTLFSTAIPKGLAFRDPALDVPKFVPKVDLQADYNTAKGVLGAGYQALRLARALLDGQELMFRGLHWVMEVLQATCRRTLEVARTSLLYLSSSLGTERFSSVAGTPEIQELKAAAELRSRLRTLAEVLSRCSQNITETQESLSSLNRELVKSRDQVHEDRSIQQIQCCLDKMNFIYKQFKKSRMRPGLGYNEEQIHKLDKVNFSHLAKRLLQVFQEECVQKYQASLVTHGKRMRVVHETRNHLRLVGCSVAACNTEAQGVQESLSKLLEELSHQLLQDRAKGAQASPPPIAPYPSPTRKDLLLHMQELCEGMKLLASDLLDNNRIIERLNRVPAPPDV
- Sequence (Q9UHD2 whole entry): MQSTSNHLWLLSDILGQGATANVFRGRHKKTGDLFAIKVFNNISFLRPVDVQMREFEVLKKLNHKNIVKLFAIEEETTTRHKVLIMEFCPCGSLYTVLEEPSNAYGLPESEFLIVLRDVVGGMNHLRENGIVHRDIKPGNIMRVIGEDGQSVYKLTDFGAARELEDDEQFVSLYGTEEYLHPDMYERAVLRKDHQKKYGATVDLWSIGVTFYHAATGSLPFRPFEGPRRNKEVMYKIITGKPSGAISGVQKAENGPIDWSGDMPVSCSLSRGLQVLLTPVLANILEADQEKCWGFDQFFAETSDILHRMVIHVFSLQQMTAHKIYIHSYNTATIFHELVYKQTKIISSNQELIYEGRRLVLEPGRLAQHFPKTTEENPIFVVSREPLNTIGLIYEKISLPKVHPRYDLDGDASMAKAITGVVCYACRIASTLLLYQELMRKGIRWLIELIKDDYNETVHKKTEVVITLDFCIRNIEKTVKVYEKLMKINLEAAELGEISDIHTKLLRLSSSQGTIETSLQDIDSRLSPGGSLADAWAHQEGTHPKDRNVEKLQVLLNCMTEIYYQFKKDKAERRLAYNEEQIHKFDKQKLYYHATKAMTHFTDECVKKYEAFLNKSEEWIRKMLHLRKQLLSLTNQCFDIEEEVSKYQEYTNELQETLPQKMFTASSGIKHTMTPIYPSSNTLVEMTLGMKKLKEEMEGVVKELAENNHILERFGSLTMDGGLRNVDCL
- experiment notes: Inhibition of IKKepsilon/TBK1 in human MDB-MB-231 cells transduced with lentiviral vector expressing human IRF3 assessed as decrease in poly(I:C)-stimulated IRF3 phosphorylation at S385/386 residues preincubated for 1 hr followed by poly(I:C) addition and measured after 1 hr
Number only, in µM; omit the unit.

Worked cases, IC50 given:
compound	target under test	IC50, µM
CN(C)c1ncnc(-c2ccc3nc(Nc4cc(CN5CCN(C(=O)CC(F)(F)F)CC5)ccn4)[nH]c3c2)c1Cl	IKK epsilon/TBK1 (Homo sapiens, UniProt Q14164+Q9UHD2)	3.89
O=C(CC(F)(F)F)N1CCN(Cc2ccnc(Nc3nc4ccc(-c5cnn(CC6CC6)c5)cc4[nH]3)c2)CC1	IKK epsilon/TBK1 (Homo sapiens, UniProt Q14164+Q9UHD2)	0.368
C[C@H](c1ccnc(Nc2nc3ccc(-c4cc(N(C)C)ncn4)cc3[nH]2)c1)N1CCN(C(=O)CC(F)(F)F)CC1	IKK epsilon/TBK1 (Homo sapiens, UniProt Q14164+Q9UHD2)	0.074
CCn1cc(-c2ccc3nc(Nc4cc(CN5CCN(C(=O)CC(F)(F)F)CC5)ccn4)[nH]c3c2)cn1	IKK epsilon/TBK1 (Homo sapiens, UniProt Q14164+Q9UHD2)	1.58
Cc1noc(-c2ccc3nc(Nc4cc(CN5CCN(CCC(F)(F)F)CC5)ccn4)[nH]c3c2)n1	IKK epsilon/TBK1 (Homo sapiens, UniProt Q14164+Q9UHD2)	5.16
Cc1noc(-c2ccc3nc(Nc4cc(C(C)N5CCN(C(=O)CC(F)(F)F)CC5)ccn4)[nH]c3c2)n1 (racemic)	IKK epsilon/TBK1 (Homo sapiens, UniProt Q14164+Q9UHD2)	2.27

Consider now this further compound.
Determine its reported IC50: C[C@H](c1ccnc(Nc2nc3ccc(-c4cnn(CC5CC5)c4)cc3[nH]2)c1)N1CCN(C(=O)CC(F)(F)F)CC1
0.131

----------
Consider the following compounds and their measured pIC50 readings.
- target under test: Serine/threonine-protein kinase 17A (Homo sapiens, UniProt Q9UEE5)
- Sequence (Q9UEE5 whole entry): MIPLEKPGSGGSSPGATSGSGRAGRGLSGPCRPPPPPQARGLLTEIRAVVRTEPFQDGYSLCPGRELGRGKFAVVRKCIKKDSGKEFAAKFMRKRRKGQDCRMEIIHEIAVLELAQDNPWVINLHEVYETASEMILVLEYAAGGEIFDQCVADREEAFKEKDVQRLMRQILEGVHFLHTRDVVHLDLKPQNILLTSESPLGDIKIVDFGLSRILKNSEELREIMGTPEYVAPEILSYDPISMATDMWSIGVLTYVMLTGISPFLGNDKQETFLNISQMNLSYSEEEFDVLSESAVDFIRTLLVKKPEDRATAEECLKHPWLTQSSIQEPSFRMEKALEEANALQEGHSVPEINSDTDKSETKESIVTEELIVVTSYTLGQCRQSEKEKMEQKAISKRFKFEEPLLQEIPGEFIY
pIC50 here is simply -log10 of the concentration when that concentration is written in mol/L.

Worked cases, pIC50 given:
CN(C)c1cc(-c2ccc3nc(Nc4cc(CN5CCN(C(=O)CC(F)(F)F)CC5)ccn4)[nH]c3c2)ncn1 6.60
CNc1cc(-c2ccc3nc(Nc4cc(CN5CCN(C(=O)CC(F)(F)F)CC5)ccn4)[nH]c3c2)ncn1 7.60
COCc1cc(-c2ccc3nc(Nc4cc([C@@H](C)N5CCN(C(=O)CC(F)(F)F)CC5)ccn4)[nH]c3c2)ncn1 7.52
C[C@H](c1ccnc(Nc2nc3ccc(-c4cc(N(C)C)ncn4)cc3[nH]2)c1)N1CCN(C(=O)CC(F)(F)F)CC1 6.51

Consider now this further compound.
Give pIC50 for this entry on Serine/threonine-protein kinase 17A (Homo sapiens, UniProt Q9UEE5): C[C@H](c1ccnc(Nc2nc3ccc(-c4cnn(CC5CCC5)c4)cc3[nH]2)c1)N1CCN(C(=O)CC(F)(F)F)CC1
7.82

----------
- experiment notes: Oral bioavailability in Wistar rat at 0.30 mg/kg measured upto 24 hrs by LC-MS/MS analysis
- Type: ADME, organism-based
- test settings: in vivo, 0.3 mg/kg
endpoint name: bioavailability (%)
Number only, in %; omit the unit.

Determine its reported bioavailability: C[C@H](c1ccnc(Nc2nc3ccc(-c4cc(N(C)C)ncn4)cc3[nH]2)c1)N1CCN(C(=O)CC(F)(F)F)CC1 [BAY-985]
11

----------
- target under test: Receptor-type tyrosine-protein kinase FLT3 (Homo sapiens)
- Sequence (P36888 whole entry): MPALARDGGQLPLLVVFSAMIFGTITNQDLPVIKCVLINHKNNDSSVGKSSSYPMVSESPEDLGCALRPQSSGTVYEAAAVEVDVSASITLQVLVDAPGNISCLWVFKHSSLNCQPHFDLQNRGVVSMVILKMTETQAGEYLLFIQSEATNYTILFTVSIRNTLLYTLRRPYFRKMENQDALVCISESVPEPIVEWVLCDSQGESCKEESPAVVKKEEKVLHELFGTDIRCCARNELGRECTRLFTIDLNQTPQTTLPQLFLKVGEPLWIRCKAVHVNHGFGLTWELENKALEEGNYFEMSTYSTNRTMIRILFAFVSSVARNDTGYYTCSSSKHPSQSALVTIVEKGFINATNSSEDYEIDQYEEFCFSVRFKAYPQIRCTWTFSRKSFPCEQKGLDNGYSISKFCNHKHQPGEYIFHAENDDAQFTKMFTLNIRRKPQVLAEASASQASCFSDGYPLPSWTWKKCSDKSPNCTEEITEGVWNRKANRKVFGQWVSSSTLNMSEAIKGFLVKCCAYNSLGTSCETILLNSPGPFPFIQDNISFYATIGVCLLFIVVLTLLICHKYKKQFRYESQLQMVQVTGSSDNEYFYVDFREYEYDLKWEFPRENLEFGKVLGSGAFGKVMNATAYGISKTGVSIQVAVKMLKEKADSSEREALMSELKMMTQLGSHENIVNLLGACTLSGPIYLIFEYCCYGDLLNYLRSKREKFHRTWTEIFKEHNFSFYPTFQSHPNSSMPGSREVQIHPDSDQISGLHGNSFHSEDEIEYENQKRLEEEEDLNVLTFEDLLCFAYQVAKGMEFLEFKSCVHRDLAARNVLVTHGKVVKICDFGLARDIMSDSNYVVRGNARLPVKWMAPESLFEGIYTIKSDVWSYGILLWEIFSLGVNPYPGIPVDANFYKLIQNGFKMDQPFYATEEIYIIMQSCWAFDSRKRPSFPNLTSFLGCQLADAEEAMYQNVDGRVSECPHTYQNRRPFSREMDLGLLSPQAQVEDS
- experiment notes: Inhibition of recombinant human N-terminal GST-tagged FLT3 (564 to end residues) expressed in sf21 cells using biotin labelled Ahx-GGEEEEYFELVKKKK peptide as substrate preincubated with enzyme for 15 mins followed by substrate addition and further incubated for 45 mins in presence of 10 uM of ATP by TR-FRET assay
pIC50: −log10 of the molar value.
Label scheme for pIC50: lower than 8 is f, 8 and above is t.

Could you verify whether the entry CN(C)c1cc(-c2ccc3nc(Nc4cc(CN5CCN(C(=O)CC(F)(F)F)CC5)ccn4)[nH]c3c2)ncn1 shows pIC50 of no less than 8?
f

Could you verify whether the entry Cc1noc(-c2ccc3nc(Nc4cc([C@@H](C)N5CCN(C(=O)CC(F)(F)F)CC5)ccn4)[nH]c3c2)n1 shows pIC50 of no less than 8?
f

Could you verify whether the entry CN(C)c1ncnc(-c2ccc3nc(Nc4cc(CN5CCN(C(=O)CC(F)(F)F)CC5)ccn4)[nH]c3c2)c1Cl [BAY-440] shows pIC50 of no less than 8?
f

Could you verify whether the entry CC(C)Oc1cncnc1-c1ccc2nc(Nc3cc([C@@H](C)N4CCN(C(=O)CC(F)(F)F)CC4)ccn3)[nH]c2c1 shows pIC50 of no less than 8?
t

Could you verify whether the entry CC(C)Cc1noc(-c2ccc3nc(Nc4cc(CN5CCN(C(=O)CC(F)(F)F)CC5)ccn4)[nH]c3c2)n1 shows pIC50 of no less than 8?
f
